Where do the numbers come from? From patent US20080267971A1.

System tested: T1, human Angiopoietin-2 (human, UniProt O15123 19-496)
T1 construct: Mostly bought recombinant protein (R&D Systems 623-AM/CF, 623-AN; biotinylated BT623) or supernatant of transfected 293F cells; also called Ang-2; rhAng-2
T1 sequence: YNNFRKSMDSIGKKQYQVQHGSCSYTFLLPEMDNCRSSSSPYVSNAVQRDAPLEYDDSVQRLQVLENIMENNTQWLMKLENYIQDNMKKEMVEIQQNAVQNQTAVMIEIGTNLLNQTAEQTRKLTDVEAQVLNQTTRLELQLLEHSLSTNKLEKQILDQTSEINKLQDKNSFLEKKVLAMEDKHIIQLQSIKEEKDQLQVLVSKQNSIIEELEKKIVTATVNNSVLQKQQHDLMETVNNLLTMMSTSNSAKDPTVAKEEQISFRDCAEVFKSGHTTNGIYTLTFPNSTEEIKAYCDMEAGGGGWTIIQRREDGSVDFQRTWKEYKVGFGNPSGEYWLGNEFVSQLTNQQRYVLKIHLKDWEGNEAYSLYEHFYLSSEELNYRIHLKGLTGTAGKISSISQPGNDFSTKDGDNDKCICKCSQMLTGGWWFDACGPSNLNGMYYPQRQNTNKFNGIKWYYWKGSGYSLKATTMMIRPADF
Test method notes: Biacore; kd held constant (*)
Property label: koff

INSERT INTO measurements (binder, property_label, meas_value) VALUES
  ('mAb 5.39.1 (antibody, V domains shown, Human hybridoma IgG (XenoMouse); also called x5.39) VH: QVQLVQSGAEVTKPGASVKVSCKASGYTFTAYHMYWVRQAPGQGLEWMGWINPNSGGTNYAQKFQGRVTMTRDTSISTAYMELSRLRSDDSPVYYCARDQGIAAAGPFDYWGQGTLVTVSS VL: EIVMTQSPATLSVSPGDRATLSCRASQSVSSNFAWYQQKPGQAPRLLIYGSSTRATGIPARFSGSGSGTEFTLTISSLQSEDFAVYYCQQYHYWWTFGQGTKVEFKR', 'koff', '≤ 1e-05 s⁻¹');
